# assay.method.text: Cytotoxicity against MDCK cells assessed as cell death by MTT assay
# Type: cell-based, Canis lupus familiaris
# conditions.used: dog, read-out: CTD50
Please respond with reported CC50 for every item in the list.
Give the quantity in µM, number only.

Please look up its CC50: `CC(C)(C)OC(=O)Cn1cc(COCC/N=C2\C[C@H]3CC[C@]2(C)C3(C)C)nn1` 204

Please look up its CC50: `COCCNCCc1cn(CC/N=C2\C[C@H]3CC[C@]2(C)C3(C)C)nn1` 865

Please look up its CC50: `CCOP(=O)(OCC)C(Cc1cn(CC/N=C2\C[C@H]3CC[C@]2(C)C3(C)C)nn1)P(=O)(OCC)OCC` 92

Please look up its CC50: `CNCc1cn(CC/N=C2\C[C@H]3CC[C@]2(C)C3(C)C)nn1` 195

* * *

# assay.method.text: Selectivity index, ratio of CTD50 for MDCK cells to ED50 for Influenza A virus (A/Puerto Rico/8/34(H1N1))
# Assay type: toxicity
# conditions.used: dog, read-out: Selectivity Index
test.readout: selectivity ratio

Please look up its selectivity ratio: `CC1(C)[C@@H]2CC[C@@]1(C)/C(=N/CCn1cc(CCN3CCOCC3)nn1)C2` > 18

Please look up its selectivity ratio: `CNCc1cn(CC/N=C2\C[C@H]3CC[C@]2(C)C3(C)C)nn1` < 2

Please look up its selectivity ratio: `CC(C)(O)Cc1cn(CC/N=C2\C[C@H]3CC[C@]2(C)C3(C)C)nn1` > 31

Please look up its selectivity ratio: `CCOP(=O)(CCCCn1cc(COCC/N=C2\C[C@H]3CC[C@]2(C)C3(C)C)nn1)OCC` > 2

Please look up its selectivity ratio: `CC1(C)[C@@H]2CC[C@@]1(C)/C(=N/CCN=[N+]=[N-])C2` > 3

Please look up its selectivity ratio: `CC1(C)[C@@H]2CC[C@@]1(C)/C(=N/CCn1cc(CCO)nn1)C2` > 19

Please look up its selectivity ratio: `CC1(C)[C@@H]2CC[C@@]1(C)/C(=N/CCOCc1cn(CCO)nn1)C2` > 19

Please look up its selectivity ratio: `CC1(C)[C@@H]2CC[C@@]1(C)/C(=N/CCn1cc([Si](C)(C)C)nn1)C2` < 1

* * *

# assay.method.text: Cytotoxicity against MDCK cells assessed as cell death by MTT assay
# Assay type: cell-based, Canis lupus familiaris
# conditions.used: dog, read-out: CTD50
Please respond with reported CC50 for every item in the list.

Please look up its CC50: `CC1(C)[C@@H]2CC[C@@]1(C)/C(=N/CCn1cc(CCO)nn1)C2` > 1030 µM

Please look up its CC50: `CC1(C)[C@@H]2CC[C@@]1(C)/C(=N/CCn1cc(CCN3CCOCC3)nn1)C2` > 836 µM

Please look up its CC50: CCOC(=O)C(C)(Cc1cn(CC/N=C2\C[C@H]3CC[C@]2(C)C3(C)C)nn1)P(=O)(OCC)OCC (stereo not given in full) > 555 µM

Please look up its CC50: `CC1(C)[C@@H]2CC[C@@]1(C)/C(=N/CCn1cc(CO)nn1)C2` > 1090 µM

Please look up its CC50: `CC1(C)[C@@H]2CC[C@@]1(C)/C(=N/CCN=[N+]=[N-])C2` > 1360 µM

Value source: ChEMBL document CHEMBL4038286
